- Tested on: vancomycin-resistant E. faecalis VRE 725B (VRE3)
- test_method_notes: MIC, microtitration broth method
- Format: cell-based, Enterococcus faecalis
Consider the cut-off 10 µM. If the recorded MIC is strictly smaller, the label is y; if not, the label is n.

In [3]: df
Out[3]:
                                   molecule  answer_label
0  O=C(/C=C/c1cccc(C(F)(F)F)c1)Nc1ccc(C(F)(F)F)cc1 [1j]             n
1  O=C(/C=C/c1ccc(C(F)(F)F)cc1)Nc1cc(C(F)(F)F)cc(C(F)(F)F)c1 [2p]             y
2  O=C(/C=C/c1cccc(C(F)(F)F)c1)Nc1cc(Cl)cc(Cl)c1 [1o]             n
3  CC1(C)S[C@@H]2[C@H](NC(=O)[C@H](N)c3ccccc3)C(=O)N2[C@H]1C(=O)O [AMP, ampicillin, reference compound]             n
4  O=C(/C=C/c1ccc(C(F)(F)F)cc1)Nc1cccc(C(F)(F)F)c1 [2i]             n

* * *

Item-by-item account of MBC
- Test system: vancomycin-resistant E. faecalis VRE 725B (VRE3)
- test_method_notes: MBC, agar aliquot subculture method
- Type: cell-based, Enterococcus faecalis
quantity_measured: MBC (µM)

In [3]: df
Out[3]:
                                   compound                            assayed_system  assay_value
0  O=C(/C=C/c1ccc(C(F)(F)F)cc1)Nc1cccc(C(F)(F)F)c1  vancomycin-resistant E. faecalis VRE 725B (VRE3)         11.1
1  O=C(/C=C/c1cccc(C(F)(F)F)c1)Nc1ccc(C(F)(F)F)cc1  vancomycin-resistant E. faecalis VRE 725B (VRE3)         22.3
2  CC1(C)S[C@@H]2[C@H](NC(=O)[C@H](N)c3ccccc3)C(=O)N2[C@H]1C(=O)O [AMP, ampicillin, reference compound]  vancomycin-resistant E. faecalis VRE 725B (VRE3)         11.5
3  O=C(/C=C/c1ccc(C(F)(F)F)cc1)Nc1cc(C(F)(F)F)cc(C(F)(F)F)c1  vancomycin-resistant E. faecalis VRE 725B (VRE3)         2.34
4  O=C(/C=C/c1cccc(C(F)(F)F)c1)Nc1cc(Cl)cc(Cl)c1  vancomycin-resistant E. faecalis VRE 725B (VRE3)         22.2

* * *

Item-by-item account of melting point
quantity_measured: melting point

>>> print(df.to_string())
                             chemical_smiles    assay_value
 0  O=C(/C=C/c1cccc(C(F)(F)F)c1)Nc1ccc(C(F)(F)F)cc1  118 to 120 °C
 1  O=C(/C=C/c1cccc(C(F)(F)F)c1)Nc1ccccc1C(F)(F)F  111 to 113 °C
 2  O=C(/C=C/c1ccc(C(F)(F)F)cc1)Nc1ccc(F)cc1F  141 to 143 °C
 3  O=C(/C=C/c1ccc(C(F)(F)F)cc1)Nc1cccc(Cl)c1  150 to 152 °C
 4  O=C(/C=C/c1ccc(C(F)(F)F)cc1)Nc1cc(F)cc(F)c1  188 to 190 °C
 5    O=C(/C=C/c1cccc(C(F)(F)F)c1)Nc1ccccc1F  115 to 117 °C
 6  O=C(/C=C/c1ccc(C(F)(F)F)cc1)Nc1ccc(F)cc1  149 to 151 °C
 7  O=C(/C=C/c1ccc(C(F)(F)F)cc1)Nc1cc(C(F)(F)F)cc(C(F)(F)F)c1  207 to 209 °C
 8  O=C(/C=C/c1cccc(C(F)(F)F)c1)Nc1cccc(F)c1  113 to 115 °C
 9  O=C(/C=C/c1cccc(C(F)(F)F)c1)Nc1cc(Cl)ccc1Cl  145 to 147 °C
10  O=C(/C=C/c1cccc(C(F)(F)F)c1)Nc1cc(C(F)(F)F)cc(C(F)(F)F)c1  147 to 149 °C
11   O=C(/C=C/c1ccc(C(F)(F)F)cc1)Nc1ccccc1Cl  171 to 173 °C
12  O=C(/C=C/c1ccc(C(F)(F)F)cc1)Nc1cc(Cl)cc(Cl)c1  177 to 179 °C
13  O=C(/C=C/c1ccc(C(F)(F)F)cc1)Nc1cc(Cl)ccc1Cl  180 to 182 °C
14  O=C(/C=C/c1cccc(C(F)(F)F)c1)Nc1ccc(F)cc1F  143 to 145 °C
15    O=C(/C=C/c1ccc(C(F)(F)F)cc1)Nc1ccccc1F  164 to 166 °C
16  O=C(/C=C/c1cccc(C(F)(F)F)c1)Nc1cc(Cl)cc(Cl)c1  124 to 126 °C
17  O=C(/C=C/c1cccc(C(F)(F)F)c1)Nc1ccc(Cl)cc1  162 to 164 °C
18  O=C(/C=C/c1ccc(C(F)(F)F)cc1)Nc1ccc(C(F)(F)F)cc1  192 to 194 °C
19  O=C(/C=C/c1ccc(C(F)(F)F)cc1)Nc1ccc(Cl)cc1Cl  188 to 190 °C
20  O=C(/C=C/c1ccc(C(F)(F)F)cc1)Nc1ccccc1C(F)(F)F  189 to 191 °C

* * *

- Tested on: Staphylococcus aureus ATCC 29213
- test_method_notes: MBC, agar aliquot subculture method
- Type: cell-based
- assay_setup: ATCC29213, S. aureus ATCC 29213
Item-by-item account of MBC
quantity_measured: MBC

>>> print(df.to_string())
                                   compound  quantity_measured  assay_value
0  O=C(/C=C/c1ccc(C(F)(F)F)cc1)Nc1cc(C(F)(F)F)cc(C(F)(F)F)c1                MBC     0.146 µM
1  O=C(/C=C/c1cccc(C(F)(F)F)c1)Nc1cccc(C(F)(F)F)c1                MBC      22.3 µM
2  O=C(/C=C/c1ccc(C(F)(F)F)cc1)Nc1cccc(C(F)(F)F)c1                MBC      1.39 µM
3  O=C(/C=C/c1cccc(C(F)(F)F)c1)Nc1ccc(C(F)(F)F)cc1                MBC      2.78 µM
4  O=C(/C=C/c1cccc(C(F)(F)F)c1)Nc1ccc(Cl)cc1                MBC      49.1 µM
5  O=C(/C=C/c1cccc(C(F)(F)F)c1)Nc1cccc(F)c1                MBC      25.9 µM
6  O=C(/C=C/c1cccc(C(F)(F)F)c1)Nc1cc(Cl)cc(Cl)c1                MBC     0.694 µM
7  CC1(C)S[C@@H]2[C@H](NC(=O)[C@H](N)c3ccccc3)C(=O)N2[C@H]1C(=O)O [AMP, ampicillin, reference compound]                MBC    > 5.72 µM
8  O=C(/C=C/c1cccc(C(F)(F)F)c1)Nc1cccc(Cl)c1                MBC      12.3 µM
9  O=C(/C=C/c1cccc(C(F)(F)F)c1)Nc1cc(C(F)(F)F)cc(C(F)(F)F)c1                MBC      1.17 µM

* * *

- System: M. smegmatis ATCC 700084
Item-by-item account of MIC
quantity_measured: MIC

>>> print(df.to_string())
                                   compound  assay_value
0  O=C(/C=C/c1ccc(C(F)(F)F)cc1)Nc1cc(C(F)(F)F)cc(C(F)(F)F)c1 [2p]      1.17 µM
1  O=C(/C=C/c1cccc(C(F)(F)F)c1)Nc1ccc(Cl)cc1 [1g]      24.6 µM
2  O=C(/C=C/c1cccc(C(F)(F)F)c1)Nc1cccc(Cl)c1 [1f]      24.6 µM
3  O=C(/C=C/c1cccc(C(F)(F)F)c1)Nc1cccc(F)c1 [1c]      51.7 µM
4  O=C(/C=C/c1cccc(C(F)(F)F)c1)Nc1ccc(C(F)(F)F)cc1 [1j]      11.1 µM
5  O=C(/C=C/c1cccc(C(F)(F)F)c1)Nc1cc(C(F)(F)F)cc(C(F)(F)F)c1 [1p]      9.36 µM
6  NNC(=O)c1ccncc1 [INH, isoniazid, reference compound]       117 µM
7  O=C(/C=C/c1cccc(C(F)(F)F)c1)Nc1cccc(C(F)(F)F)c1 [1i]      11.1 µM
8  O=C(/C=C/c1cccc(C(F)(F)F)c1)Nc1cc(Cl)cc(Cl)c1 [1o]      11.1 µM

* * *

- System: methicillin-resistant S. aureus 63718 (MRSA3)
- test_method_notes: MIC, microtitration broth method
- Assay type: cell-based
- assay_setup: Staphylococcus aureus; MRSA 63718
Item-by-item account of MIC
quantity_measured: MIC (µM)

                            chemical_smiles  quantity_measured  unit_abbrev  assay_value
0  O=C(/C=C/c1cccc(C(F)(F)F)c1)Nc1cc(C(F)(F)F)cc(C(F)(F)F)c1                MIC           µM        0.585
1  O=C(/C=C/c1ccc(C(F)(F)F)cc1)Nc1cccc(C(F)(F)F)c1                MIC           µM         2.78
2  O=C(/C=C/c1cccc(C(F)(F)F)c1)Nc1cc(Cl)cc(Cl)c1                MIC           µM        0.694
3  O=C(/C=C/c1cccc(C(F)(F)F)c1)Nc1ccc(Cl)cc1                MIC           µM         12.3
4  O=C(/C=C/c1cccc(C(F)(F)F)c1)Nc1cccc(C(F)(F)F)c1                MIC           µM         2.78
